Assay: qHTS assay for identifying genotoxic compounds that show differential cytotoxicity against isogenic chicken DT40 cell lines with known DNA damage response pathways - wild type cell line (AID 743012); further: nearly all actives have a fitted effect of over 60% in size
Settings: DT40 wild type chicken cells viability, CellTiter-Glo, 40 h; series mostly up to 68.4 µM
Inconclusive results are not listed. Calls of active or inactive are those of the source. The call rests on the fitted dose curve; in most records, active means well fitted cell-killing curve with a large enough effect in the repeat runs; inconclusive means weak or mixed curves, or effect the other way; inactive means no such curve, though single readings can be large or run the other way.
Use one of these outcomes when replying: true (1) = active, false (0) = inactive

Worked set:
C[N+](C)(C)Cc1ccccc1: false (0)
CC(=O)O: false (0)
O=c1nc(O)n(Cl)c(=O)n1Cl: false (0)
CCCC[N+]1(C)CCCCC1: false (0)
Cc1cc(Cl)ccc1N: false (0)

Query: recorded result category for `CCCCCCCCCCCC(=O)O` in this test false (0)

# outcome recorded in this test, key = `Oc1ccccc1-c1ccccc1` false (0)

----------
Experiment: qHTS RealTime-Glo MT Cell Viability Assay in HEK293 cells - 16 hour (AID 1224872); further: top concentration of the series differs between compounds; nearly all actives have a fitted effect of over 50% in size
Settings: RealTime-Glo luminescence; series mostly up to 76.8 µM
Records with an inconclusive call do not appear. Activity calls are given as the source filed them. Calls follow the shape of the dose curve; as a rule, active = well fitted cell-killing curve with a large enough effect in the repeat runs; inconclusive = weak or mixed curves, or effect the other way; inactive = flat fitted curve, though single readings scatter.
Can you answer with just one of these options? active, inactive

Worked examples, 2 compounds total:
O=P1(N(CCCl)CCCl)NCCCO1 (centres undefined): inactive
COCC(=O)N(c1c(C)cccc1C)C(C)C(=O)OC (centres undefined): inactive

Given `O=C(O)c1ccccc1O` , state the outcome it received in this test. inactive

Per the assay record, what outcome was assigned to `CCCC[n+]1ccccc1` ? inactive

Could you check what this test reported for `CCCn1cc[n+](C)c1` ? inactive

Recorded test outcome, item `CCNc1nc(Cl)nc(NCC)n1` inactive

Query: recorded result category for `Cc1cc(Cl)ccc1OCC(=O)O` in this test inactive

----------
Assay: qHTS assay to identify aromatase inhibitors - cell viability counter screen (AID 743084);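 further: cells stimulated with testosterone during compound exposure; nearly all actives have a fitted effect of over 55% in size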
Conditions: MCF-7 aro ERE viability, CellTiter-Fluor, 24 h; series mostly up to 70.3 µM
Results filed as inconclusive are left out. The source made the active and inactive calls. Calls come from the whole dose curve; as a rule, active = well fitted cell-killing curve with a large enough effect in the repeat runs; inconclusive = weak or mixed curves, or effect the other way; inactive = no such curve, though single readings can be large or run the other way.
assay-metric: outcome

Sample answers from the record:
CCOP(=S)(OCC)Oc1ccc2c(C)c(Cl)c(=O)oc2c1: inactive
Nc1ccc(-c2ccc(N)c(Cl)c2)cc1Cl: inactive
Oc1ccccc1-c1ccccc1: inactive
O=C(O)CCl: inactive
COP(=O)(OC)OC=C(Cl)Cl: inactive

Reported outcome for `CCCCCC[n+]1ccccc1` : what is it? inactive

Value lookup for outcome; key = `O=C(O)CC(O)(CC(=O)O)C(=O)O` inactive

So what does the record say about outcome for `CCCCCCCCn1cc[n+](C)c1` ? inactive

For `O=C(O)C(Cl)(Cl)Cl` , what is its reported outcome? inactive

----------
Assay: qHTS assay to test for compound auto fluorescence at 535 nm (green) in HepG2 cell free culture (AID 720686)
Conditions: Cell-free medium, green autofluorescence 485/535 nm; series mostly up to 91.3 µM
Active and inactive are the calls of the source. Calls come from the whole dose curve; as a rule, active = well fitted curve in the direction sought with a large enough effect in the repeat runs; inconclusive = weak or mixed curves; inactive = flat fitted curve, though single readings scatter.
assay-metric: outcome

CCCC[N+]1(C)CCCC1: inactive
CC[N+]1(C)CCCC1: inactive
CCOP(=S)(OCC)Oc1ccc2c(C)c(Cl)c(=O)oc2c1: inactive
Cc1cc(Cl)ccc1OCC(=O)O: inactive

# context switch: different compound, same outcome
Fill in: outcome of `C1CCC(NC2CCCCC2)CC1` is ___ inactive

----------
Assay: qHTS RealTime-Glo MT Cell Viability Assay in HEK293 cells - 8 hour (AID 1224887); further: top concentration of the series differs between compounds; nearly all actives have a fitted effect of over 50% in size
Settings: RealTime-Glo luminescence; series mostly up to 76.8 µM
From the text: U.S. Tox21 Program National Center for Advancing Translational Sciences [NCATS] NIH Chemical Genomics Center [NCGC] U.S. Environmental Protection Agency [EPA] National Institutes of Environmental Health Sciences [NIEHS] National Toxicology Program [NTP] U.S. Food and Drug Administration [FDA] Tox21 Assay Overview: Measure of cell viability is critical in the cell-base assay. Analysis of cell viability is necessary for the characterization of cell responses to cytotoxic drugs and environmental stress. […]
Results filed as inconclusive are left out. Active and inactive are the calls of the source. Calls follow the shape of the dose curve; as a rule, active = well fitted cell-killing curve with a large enough effect in the repeat runs; inconclusive = weak or mixed curves, or effect the other way; inactive = flat fitted curve, though single readings scatter.
Choose one outcome from this list and give only that: active, inactive

Use the examples below as a reference point.
O=c1[nH]c(=O)n(Cl)c(=O)n1Cl: inactive
CC[N+]1(C)CCCC1: inactive
CCC[N+]1(C)CCCCC1: inactive
COP(=O)(OC)OC=C(Cl)Cl: inactive
Oc1cccc2cccnc12: inactive
O=c1nc(O)n(Cl)c(=O)n1Cl: inactive
O=C(O)C(Cl)(Cl)Cl: inactive
CCCCn1cc[n+](C)c1C: inactive
Cc1cc(Cl)ccc1OCC(=O)O: inactive
CC(=O)O: inactive

// switching to the query compound
Assay outcome for `C[N+](C)(C)Cc1ccccc1` : what was it? inactive

----------
Assay: qHTS assay to identify small molecule that activate the aryl hydrocarbon receptor (AhR) signaling pathway - cell viability counter screen (AID 743086);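 further: HepG2 liver cells carrying the AhR DRE luciferase reporter; nearly all actives have a fitted effect of over 45% in size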
Details: HepG2-AhR-luc viability, CellTiter-Fluor, 24 h; series mostly up to 70.3 µM
Records with an inconclusive call do not appear. Calls of active or inactive are those of the source. The call rests on the fitted dose curve; in most records, active means well fitted cell-killing curve with a large enough effect in the repeat runs; inconclusive means weak or mixed curves, or effect the other way; inactive means flat fitted curve, though single readings scatter.
assay-metric: outcome

O=P1(N(CCCl)CCCl)NCCCO1 (stereo not given): inactive
CCCCCCCCCCn1cc[n+](C)c1: inactive
Cc1cc(Cl)ccc1OCC(=O)O: inactive
CCC[N+]1(C)CCCCC1: inactive
COc1ccccc1N: inactive

For the compound `CCCC[n+]1ccccc1C` , what outcome is on record? inactive

Fill in: outcome of `O=c1[nH]c(=O)n(Cl)c(=O)n1Cl` is ___ inactive

----------
Biological target: Nuclear receptor subfamily 1 group I member 2 (Homo sapiens) (UniProt O75469)
Experiment: CYP3A4 induction through human pregnane X receptor (PXR) by small molecules, qHTS assay (AID 1346984); further: nearly all actives have a fitted effect of over 40% in size
Conditions: DPX-2 HepG2 PXR, CYP3A4-luciferin luminescence, 24 h; series mostly up to 46.1 µM
Inconclusive results are not listed. Activity calls are given as the source filed them. Calls follow the shape of the dose curve; as a rule, active = well fitted activation curve with a large enough effect in the repeat runs; inconclusive = weak or mixed curves; inactive = no such curve, though single readings can be large or run the other way.
assay-metric: outcome

Below: 5 compounds and their reported outcome.
C=CCOC(Cn1ccnc1)c1ccc(Cl)cc1Cl (stereo not given): inactive
CC(=O)[O][Hg][c]1ccccc1: inactive
CCOP(=S)(OCC)Oc1ccc2c(C)c(Cl)c(=O)oc2c1: inactive
CCNc1nc(Cl)nc(NCC)n1: inactive
CCCCCCCCCCCCOS(=O)(=O)O: inactive

Name the recorded outcome for `C[C@]12CCC(=O)C=C1CC[C@@H]1[C@@H]2CC[C@]2(C)C(=O)CC[C@@H]12` . inactive

Data request, read-out outcome, for `OCCOc1ccccc1` inactive

Can you look up the measured outcome of `CN(C)[C@@H]1C(=O)C(C(N)=O)=C(O)[C@@]2(O)C(=O)C3=C(O)c4c(O)cccc4[C@@](C)(O)[C@H]3[C@H](O)[C@@H]12` for me? inactive

Reported outcome for `O=c1[nH]c(=O)n(Cl)c(=O)n1Cl` : what is it? inactive

For `C1CCC(NC2CCCCC2)CC1` , what is its reported outcome? inactive

----------
Assay: qHTS assay to test for compound auto fluorescence at 535 nm (green) in HEK293 cell free culture (AID 720682)
Settings: cell-free medium, green autofluorescence 485/535 nm; series mostly up to 91.3 µM
The source made the active and inactive calls. Calls come from the whole dose curve; as a rule, active = well fitted curve in the direction sought with a large enough effect in the repeat runs; inconclusive = weak or mixed curves; inactive = flat fitted curve, though single readings scatter.
assay-metric: outcome

Answered examples (5):
CN(C)[C@@H]1C(=O)C(C(N)=O)=C(O)[C@@]2(O)C(=O)C3=C(O)c4c(O)cccc4[C@@](C)(O)[C@H]3[C@H](O)[C@@H]12: inactive
COP(=O)(OC)C(O)C(Cl)(Cl)Cl (stereo not drawn): inactive
CCNc1nc(Cl)nc(NCC)n1: inactive
CCn1cc[n+](C)c1C: inactive
Cc1cc(-c2ccc(N)c(C)c2)ccc1N: inactive

Item `O=C(O)c1nc(Cl)ccc1Cl` has what recorded outcome? inactive

State the recorded outcome for this entry: `CCCCCCCCCCCCOS(=O)(=O)O` inactive

Which outcome value belongs to `COP(=O)(OC)OC=C(Cl)Cl` ? inactive

Given the entry `CCOP(=S)(OCC)Oc1ccc2c(C)c(Cl)c(=O)oc2c1` , report its measured outcome. inactive

Please give the measured outcome for this compound: C=CCOC(Cn1ccnc1)c1ccc(Cl)cc1Cl (stereo not drawn) inactive

Which outcome value belongs to `O=C(O)COc1ccc(Cl)cc1Cl` ? inactive

----------
Biological target: Aryl hydrocarbon receptor (Homo sapiens) (UniProt P35869)
Sequence (P35869 whole entry, looked up): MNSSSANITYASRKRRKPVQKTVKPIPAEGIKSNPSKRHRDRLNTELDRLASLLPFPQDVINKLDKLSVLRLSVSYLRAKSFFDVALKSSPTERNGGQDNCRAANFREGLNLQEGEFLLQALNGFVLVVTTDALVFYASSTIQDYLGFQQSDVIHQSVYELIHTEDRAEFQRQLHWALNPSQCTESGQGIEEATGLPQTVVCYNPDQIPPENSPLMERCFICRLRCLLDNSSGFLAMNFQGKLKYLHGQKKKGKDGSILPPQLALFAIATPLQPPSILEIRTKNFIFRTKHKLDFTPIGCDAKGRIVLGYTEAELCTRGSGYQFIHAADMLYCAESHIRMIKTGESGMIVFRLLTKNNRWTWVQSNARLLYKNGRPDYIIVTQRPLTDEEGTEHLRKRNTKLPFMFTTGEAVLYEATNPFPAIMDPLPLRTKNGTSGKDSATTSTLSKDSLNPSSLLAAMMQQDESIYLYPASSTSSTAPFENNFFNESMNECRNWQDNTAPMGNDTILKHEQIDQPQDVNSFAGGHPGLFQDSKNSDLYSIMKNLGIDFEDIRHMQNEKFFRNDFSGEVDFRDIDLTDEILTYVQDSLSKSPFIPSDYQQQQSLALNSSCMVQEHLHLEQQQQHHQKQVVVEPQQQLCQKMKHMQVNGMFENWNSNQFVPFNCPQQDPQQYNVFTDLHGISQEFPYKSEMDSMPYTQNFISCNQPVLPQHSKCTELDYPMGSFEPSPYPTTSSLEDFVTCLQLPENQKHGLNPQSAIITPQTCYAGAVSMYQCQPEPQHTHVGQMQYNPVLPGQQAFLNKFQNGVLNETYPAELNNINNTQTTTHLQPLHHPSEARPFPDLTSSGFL
Assay: qHTS assay to identify small molecule that activate the aryl hydrocarbon receptor (AhR) signaling pathway (AID 743085);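 further: HG2L7.5c1 human HepG2 liver cells with stably integrated DRE-driven firefly reporter; nearly all actives have a fitted effect of over 15% in size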
Conditions: HepG2 AhR-luc (HG2L7.5c1), luciferase, 24 h; series mostly up to 70.3 µM
Text: U.S. Tox21 Program National Center for Advancing Translational Sciences [NCATS] NIH Chemical Genomics Center [NCGC] U.S. Environmental Protection Agency [EPA] National Institutes of Environmental Health Sciences [NIEHS] National Toxicology Program [NTP] U.S. Food and Drug Administration [FDA] Tox21 Assay overview: The Aryl hydrocarbon Receptor (AhR), a member of the family of basic helix-loop-helix transcription factors, is crucial to adaptive responses to environmental changes. […]
Results filed as inconclusive are left out. The source made the active and inactive calls. Calls follow the shape of the dose curve; as a rule, active = well fitted activation curve with a large enough effect in the repeat runs; inconclusive = weak or mixed curves; inactive = no such curve, though single readings can be large or run the other way.
assay-metric: outcome

// known answers, use as guide
O=[N+]([O-])c1ccccc1O: inactive
C1CCC(NC2CCCCC2)CC1: inactive
CCC(=O)C(CC(C)N(C)C)(c1ccccc1)c1ccccc1 (stereo not drawn): inactive
O=C(O)C(Cl)Cl: inactive

Quick one: outcome for `CN(C)[C@@H]1C(=O)C(C(N)=O)=C(O)[C@@]2(O)C(=O)C3=C(O)c4c(O)cccc4[C@@](C)(O)[C@H]3[C@H](O)[C@@H]12` ? inactive
